Measured inhibition at 1 µM values are reported for all entries that follow.
target: KDR (VEGFR2) (Homo sapiens (Human), UniProt P35968); assay: Inhibitory activity against kinase KDR, Z'-LYTE method (Invitrogen); assay type: biochemical; conditions: 1 μM compound; read-out: Inhibition (% inhibition at 1 μM) against KDR
Sequence (P35968 20-1356): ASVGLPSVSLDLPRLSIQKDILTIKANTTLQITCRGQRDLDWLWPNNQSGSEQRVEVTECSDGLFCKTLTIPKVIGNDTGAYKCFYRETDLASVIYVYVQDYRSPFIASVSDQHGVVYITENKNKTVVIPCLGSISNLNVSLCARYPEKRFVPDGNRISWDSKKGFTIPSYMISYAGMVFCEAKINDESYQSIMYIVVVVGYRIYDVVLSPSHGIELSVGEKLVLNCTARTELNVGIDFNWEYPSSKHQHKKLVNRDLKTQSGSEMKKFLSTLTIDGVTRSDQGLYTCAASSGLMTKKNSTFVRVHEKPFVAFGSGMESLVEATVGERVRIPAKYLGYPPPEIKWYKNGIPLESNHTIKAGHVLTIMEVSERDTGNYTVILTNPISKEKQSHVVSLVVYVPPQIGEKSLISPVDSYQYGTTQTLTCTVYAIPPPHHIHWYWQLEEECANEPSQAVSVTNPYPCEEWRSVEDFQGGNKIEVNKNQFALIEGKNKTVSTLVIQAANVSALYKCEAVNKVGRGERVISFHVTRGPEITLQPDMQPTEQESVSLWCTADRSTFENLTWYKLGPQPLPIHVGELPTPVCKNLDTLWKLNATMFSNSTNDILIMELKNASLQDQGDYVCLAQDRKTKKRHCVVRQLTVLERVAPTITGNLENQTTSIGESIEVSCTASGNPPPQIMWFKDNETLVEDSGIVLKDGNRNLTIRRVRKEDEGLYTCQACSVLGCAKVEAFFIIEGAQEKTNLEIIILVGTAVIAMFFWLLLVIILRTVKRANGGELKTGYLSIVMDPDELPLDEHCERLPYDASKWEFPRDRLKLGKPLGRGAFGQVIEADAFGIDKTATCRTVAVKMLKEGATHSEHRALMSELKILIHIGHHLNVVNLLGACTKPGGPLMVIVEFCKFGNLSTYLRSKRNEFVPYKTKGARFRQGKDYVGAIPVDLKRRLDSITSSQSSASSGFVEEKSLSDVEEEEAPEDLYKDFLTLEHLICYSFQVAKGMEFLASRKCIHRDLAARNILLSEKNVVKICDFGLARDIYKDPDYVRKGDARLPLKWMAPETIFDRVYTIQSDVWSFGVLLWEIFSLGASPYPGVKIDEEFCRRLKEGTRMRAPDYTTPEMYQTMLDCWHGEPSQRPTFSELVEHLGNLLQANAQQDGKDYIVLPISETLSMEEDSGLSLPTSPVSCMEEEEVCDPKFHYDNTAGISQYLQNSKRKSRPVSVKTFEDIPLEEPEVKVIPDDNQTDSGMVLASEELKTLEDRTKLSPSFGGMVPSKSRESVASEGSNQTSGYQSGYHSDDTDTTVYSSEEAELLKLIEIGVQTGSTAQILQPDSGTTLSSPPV

Illustrative cases are given below, each with its answer.
O=C(Nc1cccc(Oc2ccc3ncc(N4CCNCC4)nc3c2)c1)Nc1cccc(C(F)(F)F)c1 : > 89%
O=C(Nc1ccc(Oc2ccc3ncc(N4CCOCC4)nc3c2)cc1)Nc1ccc(C(F)(F)F)cc1 : 70 to 89%
O=C(Nc1cc(F)cc(Oc2ccc3ncc(N4CCOCC4)nc3c2)c1)Nc1cccc(C(F)(F)F)c1 : 70 to 89%

Here's the next entry for you.
State its inhibition at 1 µM on KDR (VEGFR2) (Homo sapiens (Human), UniProt P35968): O=C(Nc1cc(F)cc(F)c1)Nc1ccc(F)c(Oc2ccc3ncc(N4CCNCC4)nc3c2)c1
70 to 89%

====

Target: BRAF V600E (Homo sapiens (Human), UniProt P15056, V600E)
Sequence (P15056 whole entry V600E): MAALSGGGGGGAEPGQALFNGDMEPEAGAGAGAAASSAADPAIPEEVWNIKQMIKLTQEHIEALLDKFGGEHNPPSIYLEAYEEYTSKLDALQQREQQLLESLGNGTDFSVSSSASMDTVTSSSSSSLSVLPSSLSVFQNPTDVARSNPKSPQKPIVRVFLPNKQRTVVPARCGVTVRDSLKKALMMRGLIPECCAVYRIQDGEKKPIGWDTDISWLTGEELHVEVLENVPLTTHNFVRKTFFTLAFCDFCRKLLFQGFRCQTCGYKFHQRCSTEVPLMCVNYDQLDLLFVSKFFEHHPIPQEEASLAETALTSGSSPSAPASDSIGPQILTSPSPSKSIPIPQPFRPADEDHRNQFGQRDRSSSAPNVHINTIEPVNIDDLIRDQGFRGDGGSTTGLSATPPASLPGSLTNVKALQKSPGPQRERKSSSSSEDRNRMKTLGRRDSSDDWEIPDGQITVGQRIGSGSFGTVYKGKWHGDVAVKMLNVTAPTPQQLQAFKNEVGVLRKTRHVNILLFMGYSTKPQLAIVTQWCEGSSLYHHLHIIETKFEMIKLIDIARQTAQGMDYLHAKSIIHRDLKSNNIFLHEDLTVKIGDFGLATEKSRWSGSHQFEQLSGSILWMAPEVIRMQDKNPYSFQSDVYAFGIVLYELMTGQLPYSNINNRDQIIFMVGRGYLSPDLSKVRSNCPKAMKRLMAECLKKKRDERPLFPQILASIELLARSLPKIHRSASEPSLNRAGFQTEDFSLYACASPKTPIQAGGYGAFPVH
Test: Inhibitory activity against kinase BRAF V600E, Z'-LYTE method (Invitrogen)
Type: biochemical
Settings: 1 μM compound; read-out: Inhibition (% inhibition at 1 μM) against BRAF V600E
Method: Inhibitory activities Inhibitory activities of compounds against BRAF, and BRAF V600E were measured by Invitrogen using Z′-LYTE® Method as briefly described in the following. 4× Test compounds are dissolved in 1% DMSO. […] Fluorescence was read by plate reader. IC50 was calculated by plotting the concentration of compound vs the percentage of inhibition in treated wells using GraphPad Prism 5. […]
Measured inhibition at 1 µM values are reported for all entries that follow.

Illustrative cases are given below, each with its answer.
N#Cc1ccc(NC(=O)Nc2cccc(Oc3ccc4nccnc4c3)c2)cc1 [Compound C070] : > 89%
O=C(Nc1cccc(Cl)c1)Nc1ccc(F)c(Oc2ccc3ncc(N4CCOCC4)nc3c2)c1 [Compound C055] : > 89%
O=C(Nc1cc(F)cc(Oc2ccc3ncc(N4CCOCC4)nc3c2)c1)c1cccc(C(F)(F)F)c1 [Compound C028] : > 89%

Look up inhibition at 1 µM for this compound: O=C(Nc1ccc(Oc2ccc3nccnc3c2)cc1)c1ccc(Cl)c(C(F)(F)F)c1 [Compound C079]
< 70%

// repeat for O=C(Nc1ccc(Oc2ccc3nccnc3c2)cc1)Nc1ccc(Cl)c(C(F)(F)F)c1 [Compound C076] and report
70 to 89%

// repeat for O=C(Nc1ccc(Oc2ccc3nccnc3c2)cc1)c1cccc(F)c1 [Compound C077] and report
< 70%

// repeat for O=C(Nc1cc(F)cc(Oc2ccc3nccnc3c2)c1)c1cccc(C(F)(F)F)c1 [Compound C015] and report
> 89%

// repeat for O=C(Nc1cccc(Oc2ccc3ncc(N4CCNCC4)nc3c2)c1)Nc1ccc(F)c(F)c1 [Compound C036] and report
> 89%

// repeat for CCCNC(=O)Nc1cccc(Oc2ccc3nccnc3c2)c1 [Compound C071] and report
< 70%

====

biological target: KDR (VEGFR2) (Homo sapiens (Human), UniProt P35968); test: Inhibitory activity against kinase KDR, Z'-LYTE method (Invitrogen); type: biochemical; conditions: 1 μM compound; read-out: Inhibition (% inhibition at 1 μM) against KDR
Measured metric: inhibition at 1 µM

O=C(Nc1cccc(F)c1)Nc1cccc(Oc2ccc3nccnc3c2)c1 : 70 to 89%
O=C(Nc1cccc(Cl)c1)Nc1ccc(Oc2ccc3nccnc3c2)cc1F : 70 to 89%
O=C(Nc1ccc(F)c(Cl)c1)Nc1ccc(F)c(Oc2ccc3ncc(N4CCNCC4)nc3c2)c1 : > 89%
O=C(Nc1ccc(Oc2ccc3nccnc3c2)cc1)Nc1ccc(Cl)c(C(F)(F)F)c1 : 70 to 89%
O=C(Nc1ccc(F)c(Oc2ccc3ncc(N4CCNCC4)nc3c2)c1)Nc1ccc(Cl)c(C(F)(F)F)c1 : > 89%

Look up inhibition at 1 µM for this compound: O=C(Nc1ccc(F)c(Oc2ccc3ncc(N4CCOCC4)nc3c2)c1)c1cccc(C(F)(F)F)c1
> 89%

// repeat for O=C(Nc1cccc(C(F)(F)F)c1)Nc1ccc(F)c(Oc2ccc3nccnc3c2)c1 and report
70 to 89%

// repeat for O=C(Nc1cccc(Oc2ccc3ncc(N4CCNCC4)nc3c2)c1)Nc1ccc(Cl)c(C(F)(F)F)c1 and report
> 89%

// repeat for O=C(Nc1ccc(Cl)cc1)Nc1cccc(Oc2ccc3ncc(N4CCOCC4)nc3c2)c1 and report
70 to 89%

// repeat for O=C(Nc1cccc(Oc2ccc3nccnc3c2)c1)c1cccc(F)c1 and report
< 70%

// repeat for O=C(Nc1ccc(F)c(Oc2ccc3nccnc3c2)c1)Nc1ccc(Cl)c(C(F)(F)F)c1 and report
70 to 89%

// repeat for O=C(Nc1cccc(Oc2ccc3ncc(N4CCOCC4)nc3c2)c1)Nc1cccc(C(F)(F)F)c1 and report
70 to 89%

// repeat for O=C(Nc1cc(F)cc(Oc2ccc3ncc(N4CCOCC4)nc3c2)c1)c1ccc(Cl)c(C(F)(F)F)c1 and report
70 to 89%

// repeat for O=C(Nc1ccc(F)c(F)c1)Nc1ccc(F)c(Oc2ccc3ncc(N4CCOCC4)nc3c2)c1 and report
70 to 89%

// repeat for O=C(Nc1ccc(Oc2ccc3ncc(N4CCNCC4)nc3c2)cc1)Nc1ccc(Cl)c(C(F)(F)F)c1 and report
> 89%

// repeat for O=C(Nc1cc(F)cc(Oc2ccc3ncc(N4CCOCC4)nc3c2)c1)c1cccc(F)c1 and report
70 to 89%
